Source: paper PMC9416004

- System: HCoV-229E
- measurement.protocol: Cytopathic effect (CPE) reduction assay with HCoV-229E in HEL cells
- Assay type: cell-based, human coronavirus 229E
- protocol.conditions: Human coronavirus 229E, 120 h; HCoV-229E-infected HEL cells; protection against virus-induced CPE by microscopic scoring; five days at 35 °C; read-out: Antiviral EC50 Microscopy
pEC50: −log10 of the molar value.
Mark N for pEC50 values under 5, and Y for everything at or above.

Worked examples follow.
- compound: "N#C[C@@]1(c2ccc3c(N)ncnn23)O[C@H](CO)[C@@H](O)[C@H]1O [GS-441524, reference compound]"
  classification: "Y"
- compound: "CC(C)(C)OC(=O)N[C@@H](CC(N)=O)C(=O)N(Cc1ccc(F)cc1)C1(C(=O)NCc2ccccc2)CCN(Cc2ccccc2)CC1 [Compound 41]"
  classification: "N"
- compound: "CC(C)(C)OC(=O)N[C@@H](Cc1ccccc1)C(=O)N(Cc1ccc(F)cc1)C1(C(=O)NCc2ccccc2)CCN(Cc2ccccc2)CC1 [Compound 45]"
  classification: "Y"
- compound: "COC(=O)C[C@H](NC(=O)OC(C)(C)C)C(=O)N(Cc1ccc([N+](=O)[O-])cc1)C1(C(=O)NCc2ccccc2)CCN(Cc2ccccc2)CC1 [Compound 23]"
  classification: "Y"
- compound: "COC(=O)C[C@H](NC(=O)OCC1c2ccccc2-c2ccccc21)C(=O)N(Cc1ccccc1)C1(C(=O)NCc2ccccc2)CCN(Cc2ccccc2)CC1 [Compound 35]"
  classification: "N"

Is it the case that COC(=O)C[C@H](NC(=O)OC(C)(C)C)C(=O)N(Cc1ccc(F)cc1)C(C)(C)C(=O)NCc1ccccc1 [Compound 3] has pEC50 reaching or exceeding 5?
N

Note, next up: COC(=O)C[C@H](NC(=O)OCc1ccccc1)C(=O)N(Cc1ccccc1)C1(C(=O)NCc2ccccc2)CCN(CCc2ccccc2)CC1 [Compound 53]
Y

Entry to check: COC(=O)C[C@H](NC(=O)OC(C)(C)C)C(=O)N(Cc1ccccc1)C1(C(=O)NCc2ccccc2)CCN(Cc2ccccc2)CC1 [Compound 1]
N

Now consider COC(=O)C[C@H](NC(=O)OC(C)(C)C)C(=O)N(Cc1ccc(F)cc1)C1(C(=O)NCc2ccccc2)CCN(Cc2cccc(F)c2)CC1 [Compound 9] .
N

COC(=O)C[C@H](NC(=O)OC(C)(C)C)C(=O)N(Cc1ccc(F)cc1)C1(C(=O)NCc2ccccc2)CCN(c2ccccc2)CC1 [Compound 7] , same question.
N

Same for COC(=O)C[C@H](NC(=O)OCc1ccccc1)C(=O)N(Cc1ccc(F)cc1)C1(C(=O)NCc2ccccc2)CCN(Cc2ccccc2)CC1 [Compound 34]
Y

What would you report for CC(C)(C)OC(=O)N[C@@H](Cc1c[nH]c2ccccc12)C(=O)N(Cc1ccccc1)C1(C(=O)NCc2ccccc2)CCN(Cc2ccccc2)CC1 [Compound 47] ?
N

Can you check COC(=O)C[C@H](NC(=O)OC(C)(C)C)C(=O)N(Cc1ccc(F)cc1)C1(C(=O)NCc2ccccc2)CCN(C)CC1 [Compound 5] next?
N

Next entry: CC(C)(C)OC(=O)N[C@@H](CC(=O)O)C(=O)N(Cc1ccccc1)C1(C(=O)NCc2ccccc2)CCN(Cc2ccccc2)CC1 [Compound 44]
N

Same for COC(=O)CC[C@H](NC(=O)OC(C)(C)C)C(=O)N(Cc1ccc(F)cc1)C1(C(=O)NCc2ccccc2)CCN(Cc2ccccc2)CC1 [Compound 40]
Y
